# protocolSummary: Half-lives and pharmacokinetic parameters of polypeptides vs HM-1
# assayConditions: in vivo
Peptide text beside a SMILES is read from it. * marks the point of attachment. X22 = O=C1C=CC(=O)N1CCOCCOCCOCCOCCOCCOCCCCCC(=O)*; X84 = O=C1C=CC(=O)N1c1ccccc1CCCCCCCCCCCCC(=O)*; X28 = O=C1C=CC(=O)N1CCOCCOCCOCCCCCCC(=O)*; X52 = O=C1C=CC(=O)N1c1ccccc1CCCCCCCC(=O)*; X78 = O=C1C=CC(=O)N1c1ccc(CCCC(=O)*)cc1; X32 = O=C1C=CC(=O)N1CCOCCOCCC(=O)*
MRT inf values for the compounds below.
Field: numeric (h). Do not append units.

Examples with their reported MRT inf follow.
[
  {
    "compound": "C[C@H](NC(=O)CNC(=O)[C@H](CCCNC(=N)N)NC(=O)CCCCCCOCCOCCOCCN1C(=O)C=CC1=O)C(=O)N[C@@H](CC(=O)O)C(=O)N[C@@H](CCCNC(=N)N)C(=O)N[C@@H](C)C(=O)NCC(=O)NCC(=O)NCC(=O)NCC(=O)N[C@@H](CCCNC(=N)N)C(=O)NCC(=O)N[C@@H](CC(=O)O)C(=O)O [X68] (X28-RGADRAGGGGRGD-OH)",
    "unitsText": "h",
    "MRT inf": 57
  },
  {
    "compound": "C[C@H](NC(=O)CNC(=O)[C@H](CCCNC(=N)N)NC(=O)CCCc1ccc(N2C(=O)C=CC2=O)cc1)C(=O)N[C@@H](CC(=O)O)C(=O)N[C@@H](CCCNC(=N)N)C(=O)N[C@@H](C)C(=O)NCC(=O)NCC(=O)NCC(=O)NCC(=O)N[C@@H](CCCNC(=N)N)C(=O)NCC(=O)N[C@@H](CC(=O)O)C(=O)O [X39] (X78-RGADRAGGGGRGD-OH)",
    "unitsText": "h",
    "MRT inf": 58.8
  },
  {
    "compound": "C[C@H](NC(=O)CNC(=O)[C@H](CCCNC(=N)N)NC(=O)CCCCCCCc1ccccc1N1C(=O)C=CC1=O)C(=O)N[C@@H](CC(=O)O)C(=O)N[C@@H](CCCNC(=N)N)C(=O)N[C@@H](C)C(=O)NCC(=O)NCC(=O)NCC(=O)NCC(=O)N[C@@H](CCCNC(=N)N)C(=O)NCC(=O)N[C@@H](CC(=O)O)C(=O)O [X19] (X52-RGADRAGGGGRGD-OH)",
    "unitsText": "h",
    "MRT inf": 57.6
  },
  {
    "compound": "C[C@H](NC(=O)CNC(=O)[C@H](CCCNC(=N)N)NC(=O)CCOCCOCCN1C(=O)C=CC1=O)C(=O)N[C@@H](CC(=O)O)C(=O)N[C@@H](CCCNC(=N)N)C(=O)N[C@@H](C)C(=O)NCC(=O)NCC(=O)NCC(=O)NCC(=O)N[C@@H](CCCNC(=N)N)C(=O)NCC(=O)N[C@@H](CC(=O)O)C(=O)O [X57] (X32-RGADRAGGGGRGD-OH)",
    "unitsText": "h",
    "MRT inf": 60.5
  },
  {
    "compound": "C[C@H](NC(=O)CNC(=O)[C@H](CCCNC(=N)N)NC(=O)CCCCCCCCCCCCc1ccccc1N1C(=O)C=CC1=O)C(=O)N[C@@H](CC(=O)O)C(=O)N[C@@H](CCCNC(=N)N)C(=O)N[C@@H](C)C(=O)NCC(=O)NCC(=O)NCC(=O)NCC(=O)N[C@@H](CCCNC(=N)N)C(=O)NCC(=O)N[C@@H](CC(=O)O)C(=O)O [X24] (X84-RGADRAGGGGRGD-OH)",
    "unitsText": "h",
    "MRT inf": 53.1
  }
]

**Query** Name the recorded MRT inf for C[C@H](NC(=O)CNC(=O)[C@H](CCCNC(=N)N)NC(=O)CCCCCOCCOCCOCCOCCOCCOCCN1C(=O)C=CC1=O)C(=O)N[C@@H](CC(=O)O)C(=O)N[C@@H](CCCNC(=N)N)C(=O)N[C@@H](C)C(=O)NCC(=O)NCC(=O)NCC(=O)NCC(=O)N[C@@H](CCCNC(=N)N)C(=O)NCC(=O)N[C@@H](CC(=O)O)C(=O)O [X88] (X22-RGADRAGGGGRGD-OH) .
**Result** 56.9
